These data points were gathered from patent US20030068675.

# TARGET OR SYSTEM: T1, ZFP SBS#505 (synthetic)
# T1 chain: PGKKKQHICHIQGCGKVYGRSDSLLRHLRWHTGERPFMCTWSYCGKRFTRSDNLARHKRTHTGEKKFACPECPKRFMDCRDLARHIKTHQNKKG
# METHOD SUMMARY: EMSA
# CONDITIONS USED: tags: MBP fusion
MEASURE NAME: Kd (nM)

BINDER	MEASURE NAME	REPORTED MEASUREMENT
GCCGAGGTGC (dsDNA) DNA 1: GCCGAGGTGC DNA 2: GCACCTCGGC	Kd	65
